Entries and their measured IC50 follow.
Target desc: HLA-A24.02
Test details: Class I MHC peptide binding affinity (displacement of radiolabeled reference peptide)
Design: species or system human
Measurement context: allele A24.02; read-out: Observed Affinity (IC50; (nM))
Where a SMILES comes first, the peptide text is derived from it.
Your answer should be a plain number; it is taken to be in nM.

Recorded IC50, per entry:
Compound	Target desc	IC50 (nM)
CC[C@H](C)[C@H](NC(=O)[C@H](Cc1ccccc1)NC(=O)[C@H](CCCNC(=N)N)NC(=O)[C@@H]1CCCN1C(=O)[C@H](CC(C)C)NC(=O)[C@@H](N)CO)C(=O)N[C@@H](CC(C)C)C(=O)N[C@@H](CCSC)C(=O)N[C@@H](CCC(=O)O)C(=O)N[C@@H](CC(C)C)C(=O)O	HLA-A24.02	2770
CSCC[C@H](NC(=O)[C@H](CCCNC(=N)N)NC(=O)[C@@H](N)CCCNC(=N)N)C(=O)N1CCC[C@H]1C(=O)N1CCC[C@H]1C(=O)N[C@@H](CS)C(=O)N[C@@H](CC(C)C)C(=O)N[C@@H](C)C(=O)N[C@@H](CC(N)=O)C(=O)N[C@@H](Cc1ccccc1)C(=O)O (H-RRMPPCLANF-OH; N-terminus and C-terminus assumed)	HLA-A24.02	141

Kindly review the next compound as well.
// Input: CC(C)C[C@H](NC(=O)[C@@H](NC(=O)[C@H](CO)NC(=O)[C@H](CO)NC(=O)[C@H](CC(C)C)NC(=O)[C@@H](N)CCCNC(=N)N)C(C)C)C(=O)N[C@@H](CCC(N)=O)C(=O)N[C@@H](CCCNC(=N)N)C(=O)N[C@@H](Cc1ccccc1)C(=O)O (H-RLSSVLQRF-OH; N-terminus and C-terminus assumed) . Output its IC50 only.
28.2
